Molecular target: menin/MLL (terbium chelate-labeled menin, FITC-MBM1 peptide) (Homo sapiens, UniProt O00255, T541A)
Construct: Menin (a.a 1-610-6xhis tag)
Sequence (O00255 with tags, fused parts or gaps T541A): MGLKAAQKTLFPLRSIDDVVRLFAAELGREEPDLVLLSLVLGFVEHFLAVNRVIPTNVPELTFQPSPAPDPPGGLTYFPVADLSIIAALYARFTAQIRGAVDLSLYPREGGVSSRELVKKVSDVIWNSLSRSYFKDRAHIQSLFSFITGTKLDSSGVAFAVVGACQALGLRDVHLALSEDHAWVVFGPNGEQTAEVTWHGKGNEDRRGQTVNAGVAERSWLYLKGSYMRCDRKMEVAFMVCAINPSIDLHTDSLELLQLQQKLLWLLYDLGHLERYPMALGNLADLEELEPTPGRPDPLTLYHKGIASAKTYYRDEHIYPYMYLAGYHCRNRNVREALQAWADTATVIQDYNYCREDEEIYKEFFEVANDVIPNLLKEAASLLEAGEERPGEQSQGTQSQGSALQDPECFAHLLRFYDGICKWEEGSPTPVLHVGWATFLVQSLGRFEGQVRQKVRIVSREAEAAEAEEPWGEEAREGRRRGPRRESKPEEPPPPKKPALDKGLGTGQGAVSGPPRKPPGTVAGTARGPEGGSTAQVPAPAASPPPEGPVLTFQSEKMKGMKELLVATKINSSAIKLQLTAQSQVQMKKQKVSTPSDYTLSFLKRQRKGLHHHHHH
Assay: Menin/MLL homogenous time-resolved fluorescence (HTRF) assay
Conditions: 30 min incubation
IC50 values, listed per item
# number only, unit pM dropped from output

CC(C)[C@@H]([C@H]1C[C@H](N2CC[C@](C)(O)C2)C1)N1CC2(CCN(c3ncnnc3Oc3ccc(F)cc3-c3cnncc3C3CC3)C2)C1 (single isomer, unassigned) | 200
CC(=O)N1CCN([C@H]2C[C@H]([C@@H](C(C)C)N3CC4(CCN(c5ncnnc5Oc5ccc(F)cc5-c5cncnc5C5CC5)C4)C3)C2)CC1 (single isomer, unassigned) | 1300

Would you kindly look at the next entry?
In: What value of IC50 has been reported for the following compound? CC(=O)Nc1nnc(N[C@H]2C[C@@H]([C@@H](C(C)C)N3CC4(CCN(c5ncnnc5Oc5ccc(F)cc5-c5cncnc5C5CC5)C4)C3)C2)s1 (single isomer, unassigned)
Out: 170
